testTarget: T1, E-selectin (ES-Rg) (Homo sapiens, UniProt P16581 P16581:22-556)
T1 chain: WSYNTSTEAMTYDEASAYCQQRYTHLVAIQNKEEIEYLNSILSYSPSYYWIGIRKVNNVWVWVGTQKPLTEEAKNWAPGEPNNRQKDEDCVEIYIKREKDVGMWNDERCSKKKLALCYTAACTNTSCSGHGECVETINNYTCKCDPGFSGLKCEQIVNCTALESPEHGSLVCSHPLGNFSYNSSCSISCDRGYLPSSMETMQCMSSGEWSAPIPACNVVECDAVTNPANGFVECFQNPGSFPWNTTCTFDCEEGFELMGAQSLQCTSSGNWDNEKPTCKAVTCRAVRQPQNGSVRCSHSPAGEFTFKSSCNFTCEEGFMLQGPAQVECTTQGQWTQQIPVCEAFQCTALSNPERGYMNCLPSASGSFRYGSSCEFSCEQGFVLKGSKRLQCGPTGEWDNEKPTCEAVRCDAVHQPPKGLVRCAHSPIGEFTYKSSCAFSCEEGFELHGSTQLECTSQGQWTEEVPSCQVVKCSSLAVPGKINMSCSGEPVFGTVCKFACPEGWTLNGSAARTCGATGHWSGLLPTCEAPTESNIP
measurementNotes: filter; room temp, Ca/Mg buffer
studyConditions: tags: extracellular domain fused to human IgG1 Fc (provided by A. Varki); chain copies: 2 (dimeric Fc chimera, inferred)
valueType: pKd
One number for each entry, as −log10 of the molar value.

binder	pKd
204 (ssDNA) DNA: CTACCTACGATCTGACTAGCGGAACACGTGAGGTTTACAAGGCACTCGACGTAAACACTTGCTTACTCTCATGTAGTTCC	5.82
122 (ssDNA) DNA: CTACCTACGATCTGACTAGCGCAACGTGGCCCCGTTTAGCTCATTTGACCGTTCCATCCGGCTTACTCTCATGTAGTTCC	6.40
174 (ssDNA) DNA: CTACCTACGATCTGACTAGCCATTCACCATGGCCCCTTCCTACGTATGTTCTGCGGGTGGCTTACTCTCATGTAGTTCC	7.55
111 (ssDNA) DNA: CTACCTACGATCTGACTAGCTACACAAGGTGCTAAACGTAGAGCCAGATCGGATCTGAGCGCTTACTCTCATGTAGTTCC	5.92

Please look at the following binder next.
Quick one: pKd of 206 (ssDNA) DNA: CTACCTACGATCTGACTAGCAGCGTTGTACGGGGTTACACACAACGATTTAGATGCTCTGCTTACTCTCATGTAGTTCC ?
7.00
